Data origin, for the record: patent US9513294B2

Measured λmax Abs. (nm) accompanies every entry in the list below.
test_method_notes: Absorbance and fluorescence emission spectra (SpectraMax M2)
Format: physicochemical
particulars: MKAC compound library; absorbance maximum
endpoint_name: λmax Abs. (nm)

[
  {
    "compound": "CCOc1ccccc1CNC1=[N+]2C(=C(c3ccc(NC(C)=O)cc3)c3ccc(-n4cc(CO)nn4)n3[B-]2(F)F)C=C1 [MKAC103-70]",
    "quantitative_result": 464
  },
  {
    "compound": "CCCc1cn(-c2ccc3n2[B-](F)(F)[N+]2=C(NCc4cc(F)cc(F)c4)C=CC2=C3c2ccc(NC(C)=O)cc2)nn1 [MKAC412-48]",
    "quantitative_result": 467
  },
  {
    "compound": "CC(=O)Nc1ccc(C2=C3C=CC(N4CC(C)OC(C)C4)=[N+]3[B-](F)(F)n3c2ccc3-n2cc(CN(C)Cc3ccccc3)nn2)cc1 (stereo not shown) [MKAC20-18]",
    "quantitative_result": 467
  },
  {
    "compound": "CC(=O)Nc1ccc(C2=C3C=CC(N4CCc5ccccc5C4)=[N+]3[B-](F)(F)n3c2ccc3-n2cc(CCc3ccccc3)nn2)cc1 [MKAC66-19]",
    "quantitative_result": 470
  },
  {
    "compound": "CC(=O)Nc1ccc(C2=C3C=CC(N(C)Cc4ccccc4)=[N+]3[B-](F)(F)n3c2ccc3-n2cc(C3CC3)nn2)cc1 [MKAC195-4]",
    "quantitative_result": 466
  },
  {
    "compound": "COc1ccc(OC)c(CNC2=[N+]3C(=C(c4ccc(NC(C)=O)cc4)c4ccc(-n5cc(CC(C)C)nn5)n4[B-]3(F)F)C=C2)c1 [MKAC181-43]",
    "quantitative_result": 467
  },
  {
    "compound": "CCCC(C)c1cn(-c2ccc3n2[B-](F)(F)[N+]2=C(N4CCCC4)C=CC2=C3c2ccc(NC(C)=O)cc2)nn1 (racemic) [MKAC215-3]",
    "quantitative_result": 461
  },
  {
    "compound": "CCOc1ccccc1CNC1=[N+]2C(=C(c3ccc(NC(C)=O)cc3)c3ccc(-n4cc(CCc5ccccc5)nn4)n3[B-]2(F)F)C=C1 [MKAC103-19]",
    "quantitative_result": 464
  },
  {
    "compound": "CCCc1cn(-c2ccc3n2[B-](F)(F)[N+]2=C(N4CCc5ccccc5C4)C=CC2=C3c2ccc(NC(C)=O)cc2)nn1 [MKAC66-48]",
    "quantitative_result": 469
  },
  {
    "compound": "CCCC(C)c1cn(-c2ccc3n2[B-](F)(F)[N+]2=C(N(C)Cc4ccccc4)C=CC2=C3c2ccc(NC(C)=O)cc2)nn1 (racemic) [MKAC195-3]",
    "quantitative_result": 465
  },
  {
    "compound": "CCCCCC(O)c1cn(-c2ccc3n2[B-](F)(F)[N+]2=C(NCc4ccccc4C)C=CC2=C3c2ccc(NC(C)=O)cc2)nn1 (stereo not shown) [MKAC101-69]",
    "quantitative_result": 461
  },
  {
    "compound": "CC(=O)Nc1ccc(C2=C3C=CC(N4CC(C)OC(C)C4)=[N+]3[B-](F)(F)n3c2ccc3-n2cc(CO)nn2)cc1 (stereo not shown) [MKAC20-70]",
    "quantitative_result": 467
  },
  {
    "compound": "CCCCCC(O)c1cn(-c2ccc3n2[B-](F)(F)[N+]2=C(N4CCCC4)C=CC2=C3c2ccc(NC(C)=O)cc2)nn1 (racemic) [MKAC215-69]",
    "quantitative_result": 462
  }
]
